# measurement-notes: in vitro
# run-conditions: human, HELA cells (Acc57)
Square brackets hold non-standard residues; d marks the D form. Peptide text beside a SMILES is read from it. 2Nal = N[C@@H](Cc1ccc2ccccc2c1)C(=O)O; Cit = NC(=O)NCCC[C@H](N)C(=O)O
For each of the compounds below, state its CC50 at 48 h.
State just the number; it will be interpreted in µM.

INPUT: Value lookup for CC50 at 48 h; key = N=C(N)NCCC[C@@H]1NC(=O)[C@H](Cc2ccccc2)NC(=O)[C@H](CCCNC(N)=O)NC(=O)[C@H](CCCNC(=N)N)NC(=O)[C@H](Cc2ccc(O)cc2)NC(=O)[C@@H]2CCCN2C(=O)[C@H]2CCCN2C(=O)[C@H](CCCCN)NC(=O)[C@H](CCCNC(N)=O)NC(=O)[C@H](Cc2ccc(O)cc2)NC(=O)[C@H](Cc2ccccc2)NC(=O)[C@H](Cc2ccc3ccccc3c2)NC(=O)[C@H](CCCNC(=N)N)NC(=O)[C@H](CCCNC(=N)N)NC(=O)[C@H]2CCCN2C(=O)CNC1=O [compound 38] (cyclo(YR[Cit]FRG[dP]RR[2Nal]FY[Cit]K[dP]P))
OUTPUT: 348

INPUT: Value lookup for CC50 at 48 h; key = CC(C)[C@@H]1NC(=O)[C@H](Cc2ccc3ccccc3c2)NC(=O)[C@H](CCCNC(=N)N)NC(=O)[C@@H](CCCNC(=N)N)NC(=O)[C@H](CCCNC(=N)N)NC(=O)[C@H](C(C)C)NC(=O)[C@H](CCCNC(N)=O)NC(=O)[C@H](CCCNC(=N)N)NC(=O)[C@H](Cc2ccc(O)cc2)NC(=O)[C@@H]2CCCN2C(=O)[C@H]2CCCN2C(=O)[C@H](CCCCN)NC(=O)[C@H](CCCNC(N)=O)NC(=O)[C@H](Cc2ccc(O)cc2)NC1=O [compound 2] (cyclo(YR[Cit]VR[dR]R[2Nal]VY[Cit]K[dP]P))
OUTPUT: 97

INPUT: Value lookup for CC50 at 48 h; key = CC(C)[C@@H]1NC(=O)[C@H](CCCNC(N)=O)NC(=O)[C@H](CCCNC(=N)N)NC(=O)[C@H](Cc2ccc(O)cc2)NC(=O)[C@@H]2CCCN2C(=O)[C@H]2CCCN2C(=O)[C@H](CCCCN)NC(=O)[C@H](CCCNC(N)=O)NC(=O)[C@H](Cc2ccc(O)cc2)NC(=O)[C@H](C(C)C)NC(=O)[C@H](Cc2ccc3ccccc3c2)NC(=O)[C@H](CCCNC(=N)N)NC(=O)[C@H](CCCNC(=N)N)NC(=O)[C@H](CCCNC(=N)N)NC1=O [Ex. 6] (cyclo(YR[Cit]VRRR[2Nal]VY[Cit]K[dP]P))
OUTPUT: 103

INPUT: Value lookup for CC50 at 48 h; key = N=C(N)NCCC[C@@H]1NC(=O)[C@H](CCCNC(=N)N)NC(=O)[C@H](Cc2ccccc2)NC(=O)[C@H](CCCNC(N)=O)NC(=O)[C@H](CCCNC(=N)N)NC(=O)[C@H](Cc2ccc(O)cc2)NC(=O)[C@@H]2CCCN2C(=O)[C@H]2CCCN2C(=O)[C@H](CCCCN)NC(=O)[C@H](CCCNC(N)=O)NC(=O)[C@H](Cc2ccc(O)cc2)NC(=O)[C@H](Cc2ccccc2)NC(=O)[C@H](Cc2ccc3ccccc3c2)NC(=O)[C@H](CCCNC(=N)N)NC1=O [compound 3] (cyclo(YR[Cit]FRRR[2Nal]FY[Cit]K[dP]P))
OUTPUT: 126

INPUT: Value lookup for CC50 at 48 h; key = CC(C)[C@@H]1NC(=O)[C@H](CCCNC(N)=O)NC(=O)[C@H](CCCNC(=N)N)NC(=O)[C@H](Cc2ccc(O)cc2)NC(=O)[C@@H]2CCCN2C(=O)[C@H]2CCCN2C(=O)[C@H](CCCCN)NC(=O)[C@H](CCCNC(N)=O)NC(=O)[C@H](Cc2ccc(O)cc2)NC(=O)[C@H](Cc2ccccc2)NC(=O)[C@H](Cc2ccc3ccccc3c2)NC(=O)[C@H](CCCNC(=N)N)NC(=O)[C@H](CCCNC(=N)N)NC(=O)[C@H](CCCNC(=N)N)NC1=O [compound 4] (cyclo(YR[Cit]VRRR[2Nal]FY[Cit]K[dP]P))
OUTPUT: 191

INPUT: Value lookup for CC50 at 48 h; key = CC(C)[C@@H]1NC(=O)[C@H](CCCNC(N)=O)NC(=O)[C@H](CCCNC(=N)N)NC(=O)[C@H](Cc2ccc(O)cc2)NC(=O)[C@@H]2CCCN2C(=O)[C@H]2CCCN2C(=O)[C@H](CCCCN)NC(=O)[C@H](CCCNC(N)=O)NC(=O)[C@H](Cc2ccc(O)cc2)NC(=O)[C@H](Cc2ccccc2)NC(=O)[C@H](Cc2ccc3ccccc3c2)NC(=O)[C@H](CCCNC(=N)N)NC(=O)[C@H](CCCNC(=N)N)NC(=O)[C@H]2CCCN2C(=O)[C@H](C(C)C)NC(=O)[C@H](CCCNC(=N)N)NC1=O [compound 32] (cyclo(YR[Cit]VRV[dP]RR[2Nal]FY[Cit]K[dP]P))
OUTPUT: 85

INPUT: Value lookup for CC50 at 48 h; key = CC(C)[C@@H]1NC(=O)[C@H](CCCNC(N)=O)NC(=O)[C@H](CCCNC(=N)N)NC(=O)[C@H](Cc2ccc(O)cc2)NC(=O)[C@@H]2CCCN2C(=O)[C@H]2CCCN2C(=O)[C@H](CCCCN)NC(=O)[C@H](CCCNC(N)=O)NC(=O)[C@H](Cc2ccc(O)cc2)NC(=O)[C@H](C(C)C)NC(=O)[C@H](Cc2ccc3ccccc3c2)NC(=O)[C@H](CCCNC(=N)N)NC(=O)[C@H](CCCNC(=N)N)NC(=O)[C@H]2CCCN2C(=O)CNC(=O)[C@H](CCCNC(=N)N)NC1=O [compound 45] (cyclo(YR[Cit]VRG[dP]RR[2Nal]VY[Cit]K[dP]P))
OUTPUT: 132

====

# measurement-notes: Pharmacokinetic study (PK) after single i.v. and i.p. administration
# Type: in vivo, male CD-1 mice
# run-conditions: male, CD-1, mouse, in vivo, ip, 10 mg/kg
observable: level at 8 h (ng/mL)
State just the number; it will be interpreted in ng/mL.

INPUT: Value lookup for level at 8 h; key = N=C(N)NCCC[C@@H]1NC(=O)[C@@H]2CSSC[C@H](NC(=O)[C@H](Cc3ccc4ccccc4c3)NC(=O)[C@H](CCCNC(=N)N)NC(=O)[C@H](CCCNC(=N)N)NC(=O)[C@H]3CCCN3C(=O)CNC1=O)C(=O)N[C@@H](Cc1ccc(O)cc1)C(=O)N[C@@H](CCCNC(N)=O)C(=O)N[C@@H](CCCCN)C(=O)N1CCC[C@@H]1C(=O)N1CCC[C@H]1C(=O)N[C@@H](Cc1ccc(O)cc1)C(=O)N[C@@H](CCCNC(=N)N)C(=O)N[C@@H](CCCNC(N)=O)C(=O)N2 [Ex. 51]
OUTPUT: 519

====

# measurement-notes: Pharmacokinetic study (PK) after single i.v. and i.p. administration
# Type: in vivo, male CD-1 mice
# run-conditions: male, CD-1, mouse, in vivo, iv, 2 mg/kg, Cmax observed
observable: Cmax
Give the number first and the unit second.

INPUT: Value lookup for Cmax; key = N=C(N)NCCC[C@@H]1NC(=O)[C@@H]2CSSC[C@H](NC(=O)[C@H](Cc3ccc4ccccc4c3)NC(=O)[C@H](CCCNC(=N)N)NC(=O)[C@H](CCCNC(=N)N)NC(=O)[C@H]3CCCN3C(=O)CNC1=O)C(=O)N[C@@H](Cc1ccc(O)cc1)C(=O)N[C@@H](CCCNC(N)=O)C(=O)N[C@@H](CCCCN)C(=O)N1CCC[C@@H]1C(=O)N1CCC[C@H]1C(=O)N[C@@H](Cc1ccc(O)cc1)C(=O)N[C@@H](CCCNC(=N)N)C(=O)N[C@@H](CCCNC(N)=O)C(=O)N2 [Ex. 51]
OUTPUT: 1460 ng/mL

====

# Tested on: human red blood cells (hRBC)
# measurement-notes: Hemolysis
# Assay type: cell-based
Bridge positions count the residues as written; N and C are the ends. Square brackets hold non-standard residues; d marks the D form. Peptide text beside a SMILES is read from it. 2Nal = N[C@@H](Cc1ccc2ccccc2c1)C(=O)O; Cit = NC(=O)NCCC[C@H](N)C(=O)O
observable: Hemolysis at 100 μM

INPUT: Value lookup for Hemolysis at 100 μM; key = N=C(N)NCCC[C@@H]1NC(=O)[C@@H]2CSSC[C@H](NC(=O)[C@H](Cc3ccc4ccccc4c3)NC(=O)[C@H](CCCNC(=N)N)NC(=O)[C@H](CCCNC(=N)N)NC(=O)[C@H]3CCCN3C(=O)CNC1=O)C(=O)N[C@@H](Cc1ccc(O)cc1)C(=O)N[C@@H](CCC(N)=O)C(=O)N[C@@H](CCCCN)C(=O)N1CCC[C@@H]1C(=O)N1CCC[C@H]1C(=O)N[C@@H](Cc1ccc(O)cc1)C(=O)N[C@@H](CCCNC(=N)N)C(=O)N[C@@H](CCC(=O)O)C(=O)N2 [Ex. 75] (cyclo(YRECRG[dP]RR[2Nal]CYQK[dP]P); disulfide 4-11)
OUTPUT: 0%

INPUT: Value lookup for Hemolysis at 100 μM; key = CC(C)[C@@H]1NC(=O)[C@H](CCCNC(N)=O)NC(=O)[C@H](CCCNC(=N)N)NC(=O)[C@H](Cc2ccc(O)cc2)NC(=O)[C@@H]2CCCN2C(=O)[C@H]2CCCN2C(=O)[C@H](CCCCN)NC(=O)[C@H](CCCNC(N)=O)NC(=O)[C@H](Cc2ccc(O)cc2)NC(=O)[C@H](Cc2ccccc2)NC(=O)[C@H](Cc2ccc3ccccc3c2)NC(=O)[C@H](CCCNC(=N)N)NC(=O)[C@@H](CCCNC(=N)N)NC(=O)[C@H](CCCNC(=N)N)NC1=O [Ex. 1] (cyclo(YR[Cit]VR[dR]R[2Nal]FY[Cit]K[dP]P))
OUTPUT: 1.6%

INPUT: Value lookup for Hemolysis at 100 μM; key = CC(C)[C@@H]1NC(=O)[C@H](CCCNC(N)=O)NC(=O)[C@H](CCCNC(=N)N)NC(=O)[C@H](Cc2ccc(O)cc2)NC(=O)[C@@H]2CCCN2C(=O)[C@H]2CCCN2C(=O)[C@H](CCCCN)NC(=O)[C@H](CCCNC(N)=O)NC(=O)[C@H](Cc2ccc(O)cc2)NC(=O)[C@H](Cc2ccccc2)NC(=O)[C@H](Cc2ccc3ccccc3c2)NC(=O)[C@H](CCCNC(=N)N)NC(=O)[C@H](CCCNC(=N)N)NC(=O)[C@H](CCCNC(=N)N)NC1=O [compound 4] (cyclo(YR[Cit]VRRR[2Nal]FY[Cit]K[dP]P))
OUTPUT: 0.7%

INPUT: Value lookup for Hemolysis at 100 μM; key = CC(C)[C@@H]1NC(=O)[C@H](CCCNC(=N)N)NC(=O)[C@@H]2CSSC[C@H](NC(=O)[C@H](Cc3ccc4ccccc4c3)NC(=O)[C@H](CCCNC(=N)N)NC(=O)[C@H](CCCNC(=N)N)NC(=O)CNC1=O)C(=O)N[C@@H](Cc1ccc(O)cc1)C(=O)N[C@@H](CCCNC(N)=O)C(=O)N[C@@H](CCCCN)C(=O)N1CCC[C@@H]1C(=O)N1CCC[C@H]1C(=O)N[C@@H](Cc1ccc(O)cc1)C(=O)N[C@@H](CCCNC(=N)N)C(=O)N[C@@H](CCCNC(N)=O)C(=O)N2 [compound 53] (cyclo(YR[Cit]CRVGRR[2Nal]CY[Cit]K[dP]P); disulfide 4-11)
OUTPUT: 0.2%

Where do the numbers come from? From patent US8895695B2.
